Consider the following molecules and their measured Ki readings.
Target: recombinant BACE 2 (Homo sapiens, UniProt Q9Y5Z0)
Sequence (Q9Y5Z0 63-518): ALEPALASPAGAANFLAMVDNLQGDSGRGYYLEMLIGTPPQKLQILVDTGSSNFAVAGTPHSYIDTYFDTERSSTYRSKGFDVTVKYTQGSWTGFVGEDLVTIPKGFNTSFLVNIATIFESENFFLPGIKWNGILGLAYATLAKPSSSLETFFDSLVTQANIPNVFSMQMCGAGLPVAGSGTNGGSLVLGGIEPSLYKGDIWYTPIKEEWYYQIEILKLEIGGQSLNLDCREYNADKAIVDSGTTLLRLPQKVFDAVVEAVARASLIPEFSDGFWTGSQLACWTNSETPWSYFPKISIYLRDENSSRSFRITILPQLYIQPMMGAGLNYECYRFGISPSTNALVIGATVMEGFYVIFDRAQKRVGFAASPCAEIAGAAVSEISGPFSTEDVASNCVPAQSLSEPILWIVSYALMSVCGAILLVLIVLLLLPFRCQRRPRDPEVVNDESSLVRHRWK
Assay: enzyme inhibition of recombinant BACE 2
Type: biochemical
Conditions: recombinant BACE 2
Measure name: Ki

compound_structure=CCC[C@H](O)[C@H](NC[C@H](Cc1ccccc1)NC(=O)c1cc2c3c(c1)c(CC)cn3CC(C)(C)S(=O)(=O)N2C)C(=O)NCC(C)C measured="11 nM"
compound_structure=CC[C@H](NC[C@H](Cc1ccccc1)NC(=O)c1cc(C(=O)N[C@H](C)c2ccccc2)cc(N(C)S(C)(=O)=O)c1)C(=O)NCC(C)C measured="1450 nM"
